Target: Lysyl oxidase homolog 4 (Homo sapiens)
Sequence (Q96JB6 whole entry): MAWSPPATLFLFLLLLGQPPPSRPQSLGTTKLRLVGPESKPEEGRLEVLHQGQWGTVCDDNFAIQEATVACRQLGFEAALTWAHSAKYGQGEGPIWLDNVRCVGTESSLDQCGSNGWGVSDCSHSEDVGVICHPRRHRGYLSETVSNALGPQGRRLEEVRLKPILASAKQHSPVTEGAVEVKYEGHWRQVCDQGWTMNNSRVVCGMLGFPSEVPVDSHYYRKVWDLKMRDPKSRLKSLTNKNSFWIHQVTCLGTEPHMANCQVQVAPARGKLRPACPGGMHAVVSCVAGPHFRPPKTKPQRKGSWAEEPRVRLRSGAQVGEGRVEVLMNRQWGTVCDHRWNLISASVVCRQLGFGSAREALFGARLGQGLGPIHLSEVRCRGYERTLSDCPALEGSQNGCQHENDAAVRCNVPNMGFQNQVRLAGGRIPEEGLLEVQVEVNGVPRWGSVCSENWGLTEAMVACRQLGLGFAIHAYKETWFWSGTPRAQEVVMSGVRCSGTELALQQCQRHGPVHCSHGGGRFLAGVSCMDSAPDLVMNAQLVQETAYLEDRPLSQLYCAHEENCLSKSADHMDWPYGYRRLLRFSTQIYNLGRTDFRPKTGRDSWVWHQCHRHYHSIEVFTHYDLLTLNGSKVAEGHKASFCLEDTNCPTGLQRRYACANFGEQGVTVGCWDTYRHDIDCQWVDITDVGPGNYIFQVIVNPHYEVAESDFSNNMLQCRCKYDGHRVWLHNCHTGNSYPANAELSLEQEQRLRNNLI
Experiment: Inhibition of recombinant human LOXL4 using putrescine as substrate preincubated with enzyme for 30 mins followed by substrate addition and measured every 2.5 mins for 30 mins by Amplex-Red oxidation assay
readout.name: pIC50
Worth noting: pIC50 values are minus log10 of concentrations stated in mol/L.

[Q] So what does the record say about pIC50 for Cc1c(-c2cccc(S(=O)(=O)N(C)C)c2)c2cc(C(=O)O)ccc2n1C/C(F)=C/CN.Cl ?
[A] 6.55

====

Target: Amine oxidase [copper-containing] 3 (Homo sapiens, UniProt Q16853)
Sequence (Q16853 whole entry): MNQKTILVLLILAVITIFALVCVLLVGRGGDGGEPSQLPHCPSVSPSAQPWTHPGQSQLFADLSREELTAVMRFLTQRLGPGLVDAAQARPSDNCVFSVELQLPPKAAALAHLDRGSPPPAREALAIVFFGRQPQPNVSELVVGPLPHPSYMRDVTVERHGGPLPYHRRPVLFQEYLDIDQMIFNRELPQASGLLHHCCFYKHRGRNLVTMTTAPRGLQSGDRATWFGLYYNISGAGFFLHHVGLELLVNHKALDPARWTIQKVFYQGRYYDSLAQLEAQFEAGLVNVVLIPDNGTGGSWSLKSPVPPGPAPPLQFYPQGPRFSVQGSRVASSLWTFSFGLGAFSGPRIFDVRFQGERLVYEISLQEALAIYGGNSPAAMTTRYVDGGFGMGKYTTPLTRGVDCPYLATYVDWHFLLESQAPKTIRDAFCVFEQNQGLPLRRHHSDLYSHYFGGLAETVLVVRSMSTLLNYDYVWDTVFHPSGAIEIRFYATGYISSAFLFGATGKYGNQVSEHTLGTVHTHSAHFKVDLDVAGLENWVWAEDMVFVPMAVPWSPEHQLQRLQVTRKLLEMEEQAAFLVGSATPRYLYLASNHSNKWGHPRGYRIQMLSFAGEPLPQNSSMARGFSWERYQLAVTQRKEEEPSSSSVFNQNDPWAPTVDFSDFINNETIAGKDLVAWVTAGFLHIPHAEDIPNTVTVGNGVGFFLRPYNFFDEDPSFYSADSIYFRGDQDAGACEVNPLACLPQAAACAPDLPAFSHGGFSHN
Experiment: Substrate activity at recombinant human SSAO assessed as compound oxidation by measuring oxidative turnover at 30 uM measured for 40 mins by horseradish peroxidase-coupled amplex red reagent-based fluorometric assay relative to DMSO
Assay type: ADME
Measured fold change (FC) values are reported for all entries that follow.
Lab note: record just the number, no unit beside it.

Look over these answered cases.
# molecular.string, measurement
records = [
    ("Cc1c(-c2cccc(S(=O)(=O)N(C)C)c2)c2cc(C(=O)O)ccc2n1C/C(F)=C/CN.Cl", 1),
    ("Cc1c(-c2cccc(S(=O)(=O)N(C)C)c2)c2cc(C(=O)O)ccc2n1C/C=C/CN.Cl", 1),
]

[Q] Item under review: COc1ccc2c(c1)c(-c1cccc(S(=O)(=O)N(C)C)c1)c(C)n2C/C(F)=C/CN.Cl . Reported fold change (FC)?
[A] 4.6

[Q] # lookup: fold change (FC) of Cc1c(-c2cccc(S(=O)(=O)N(C)C)c2)c2cc(C(=O)N(C)C)ccc2n1C/C(F)=C/CN.Cl
[A] 1.2

====

Measured fold change (FC) of individual entries
Target: UniProtKB Q16853
Experiment: Substrate activity at recombinant human SSAO assessed as compound oxidation by measuring oxidative turnover at 30 uM measured for 40 mins by horseradish peroxidase-coupled amplex red reagent-based fluorometric assay relative to DMSO
Format: ADME
Reply: number alone, nothing else.

# molecular.string, measurement
measured = [
    ("CCOC(=O)c1ccc2c(c1)c(-c1cccc(S(=O)(=O)N(C)C)c1)c(C)n2C/C(F)=C/CN.Cl", 2.4),
    ("Cc1c(-c2cccc(S(=O)(=O)N(C)C)c2)c2cc(Cl)ccc2n1C/C(F)=C/CN.Cl", 1.2),
    ("Cc1c(-c2cccc(S(=O)(=O)N(C)C)c2)c2ncccc2n1C/C(F)=C/CN.Cl", 1.6),
]

[Q] Lab note: need fold change (FC) for Cc1c(-c2cccc(S(=O)(=O)N(C)C)c2)c2ccc(C(=O)N(C)C)cc2n1C/C(F)=C/CN.Cl on UniProtKB Q16853, anyone have it?
[A] 1
